- Test system: PIKFYVE;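 note: KINOMEscan kinase panel screen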
- details: concentration: 1 μM, replicates: in singlicate; n = 1
Measured %Inh, listed per entry.
readoutLabel: %Inh (%)

> print(dat)
                                    compound  measurementunit  resultnumber
 1  Cl.c1ccc(Cn2ncc3cc(Nc4ncnc5ccccc45)ccc32)cc1                %             0
 2  O=C(Nc1n[nH]c2nc(-c3ccco3)c(Br)cc12)c1ccc(CN2CCCC2)cc1.O=C(O)[C@H](O)[C@@H](O)C(=O)O                %             0
 3  CCCc1ccc(S(=O)(=O)NC2CCN(c3ccnc(Nc4ccc(OC)cc4)n3)C2)cc1 (stereo not drawn)                %             0
 4  COc1ccc(Nc2nccc(N3CCC(NC(=O)Nc4ccc5c(c4)OCO5)C3)n2)cc1 (stereo not drawn)                %            14
 5  COC(=O)c1cccc(NC(=O)NCCNc2ccnc(Nc3ccc(F)cc3)n2)c1                %             1
 6  COc1ccc(NC(=O)c2ccc(-c3cc(-c4nnc(C)o4)ccc3C)cc2)cc1                %            13
 7  Cn1ccc2ncnc(Nc3ccc(Oc4cccc(Cl)c4)c(Cl)c3)c21                %             0
 8  Clc1ccc(-c2cc(-c3c[nH]nc3-c3ccccn3)ccn2)cc1                %             0
 9  c1ccc(-c2ccc3c(-c4ccnc(Nc5ccc6c(c5)OCCO6)n4)cnn3n2)cc1                %             0
10  CCc1nc(-c2cccc(C)c2)c(-c2ccnc(NC(=O)c3ccccc3)c2)s1                %             1
11               CCC(CC)(CC)n1cnc2c(N)ncnc21                %            33
12  COc1cc2ncnc(Nc3ccc(OCc4ccccc4Br)c(Cl)c3)c2cc1OC.Cl                %            28
13  C[C@@H]1CCN(C(=O)CO)C[C@@H]1N(C)c1ncnc2[nH]ccc12                %            48
14  O=C(Nc1ccccc1F)NC1CCN(c2ccnc(Nc3ccc(F)cc3)n2)C1 (stereo not drawn)                %             0
15   CSc1ccc(NC2=C(c3ccccc3Cl)C(=O)NC2=O)cc1                %             0
16  CN1c2ccc(-c3ccc(C(=O)NCCO)cc3)cc2-c2[nH]ncc2S1(=O)=O                %             0
17  COc1cc2c(Nc3cccc(NC(=O)c4ccccc4)c3)ncnc2cc1OCCCN1CCOCC1                %             0
18                CCn1c(-c2ccncc2)nc2cnccc21                %             0
19  OCCOCCn1ccc2ncnc(Nc3ccc(Oc4cccc(Cl)c4)c(Cl)c3)c21                %            25
20  O=C(c1ccc(-c2cc(-c3c[nH]nc3-c3ccccn3)ccn2)cc1)N1CCCC1                %            19
21  CSc1nn2c(=O)cc(N3CCOCC3)nc2n1Cc1cccc(Cl)c1Cl                %            37
22  N#Cc1ccc(Oc2ccc(Nc3ncnc4cc[nH]c34)cc2Cl)cc1                %             7
23    Clc1cccc(-c2nc(Nc3ccncc3)c3ccccc3n2)c1                %            61
24  FC(F)(F)c1ccc(-c2nn3ncccc3c2-c2ccnc(Nc3cccc(C(F)(F)F)c3)n2)cc1                %             0
25              Nc1n[nH]c2nnc(-c3ccccc3)cc12                %             0
26  Cc1ccc(C)c(NC(=O)NCCNc2ccnc(Nc3ccc(F)cc3)n2)c1                %             0
27  Fc1ccc(-c2ncn(CCCNCc3ccccc3)c2-c2ccncc2)cc1                %             2
